assay_target: HIV-1 gp41 (JRFL strain) (HIV-1 JRFL)
test_description: cell-based or functional assay
Bridge positions count the residues as written; N and C are the ends. Square brackets hold non-standard residues; d marks the D form. Ends that are not written are not given here.
quantity_measured: IC50 (JRFL), pseudovirion entry (nM)

binder	units_of_measure	observed
Ac-[dH][dP][dC][dD][dY][dP][dE][dW][dQ][dW][dL][dC][dR][dL]G[dK]-NH2 (disulfide 3-12 (inferred)) [PIE14]	nM	1050
[dK]G[dA][dC][dD][dY][dP][dE][dW][dQ][dW][dL][dC][dA][dA] (disulfide 4-13 (inferred); also: trimer, N-termini joined by PEG9 spacers) [N9N(PIE7)3]	nM	220
G[dA][dC][dD][dY][dP][dE][dW][dQ][dW][dL][dC][dA][dA]G[dK] (disulfide 3-12 (inferred); also: three peptides attached directly to central scaffold TSAT, site not given here) [PIE7-GK short claw]	nM	86.6
Ac-[dH][dA][dC][dD][dY][dP][dE][dW][dQ][dW][dL][dC][dE][dL]G[dK]-NH2 (disulfide 3-12 (inferred)) [PIE15]	nM	1450
Ac-G[dA][dC][dD][dY][dP][dE][dW][dQ][dW][dL][dC][dA][dA]G[dK]-NH2 (disulfide 3-12 (inferred)) [PIE7-GK]	nM	15800
Ac-G[dA][dC][dD][dY][dP][dE][dW][dQ][dW][dL][dC][dA][dA]G[dK]-NH2 (disulfide 3-12 (inferred); also: PEG4 attached at the C-terminus, order with amide not given here) [PIE7-GK-PEG4]	nM	13100
G[dA][dC][dD][dY][dP][dE][dW][dQ][dW][dL][dC][dA][dA]G[dK] (disulfide 3-12 (inferred); also: three peptides attached to central scaffold LC-TSAT (six-atom spacer), site not given here) [PIE7-GK long claw]	nM	20.6
Ac-[dH][dP][dC][dD][dY][dP][dE][dW][dQ][dW][dL][dC][dE][dL]G[dK]-NH2 (disulfide 3-12 (inferred)) [PIE12]	nM	578
